Listing of recorded pEC50 by entry.
Molecular target: mGluR2 receptor (metabotropic glutamate receptor 2) (Homo sapiens)
Sequence (Q14416 19-872, species assumed): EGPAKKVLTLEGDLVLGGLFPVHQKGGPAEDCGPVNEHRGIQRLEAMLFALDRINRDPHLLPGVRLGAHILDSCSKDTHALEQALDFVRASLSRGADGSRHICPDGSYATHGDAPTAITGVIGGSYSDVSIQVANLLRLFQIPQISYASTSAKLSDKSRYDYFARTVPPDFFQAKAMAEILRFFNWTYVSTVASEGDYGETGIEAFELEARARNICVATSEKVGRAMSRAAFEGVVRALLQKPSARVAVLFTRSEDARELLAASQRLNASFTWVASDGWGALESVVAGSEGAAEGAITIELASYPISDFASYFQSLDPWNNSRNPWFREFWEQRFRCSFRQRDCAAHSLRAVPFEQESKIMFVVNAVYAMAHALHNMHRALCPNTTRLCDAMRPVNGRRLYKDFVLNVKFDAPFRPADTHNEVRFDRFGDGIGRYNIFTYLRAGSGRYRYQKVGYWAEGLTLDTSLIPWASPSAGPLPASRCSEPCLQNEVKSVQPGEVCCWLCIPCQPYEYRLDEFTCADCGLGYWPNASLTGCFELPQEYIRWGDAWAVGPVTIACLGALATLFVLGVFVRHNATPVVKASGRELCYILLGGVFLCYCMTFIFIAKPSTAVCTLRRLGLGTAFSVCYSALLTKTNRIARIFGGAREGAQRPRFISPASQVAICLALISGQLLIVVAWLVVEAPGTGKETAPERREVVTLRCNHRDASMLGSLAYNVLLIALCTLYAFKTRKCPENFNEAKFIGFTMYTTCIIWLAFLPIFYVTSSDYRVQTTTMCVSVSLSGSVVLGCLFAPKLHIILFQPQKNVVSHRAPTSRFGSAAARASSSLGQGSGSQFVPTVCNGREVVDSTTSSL
Test: mGluR2 potentiator screen (FLIPR, EC10-EC20 glutamate challenge)
Settings: geometric mean; read-out: mGluR 2 EC50 (geometric mean)
# pEC50: negative log10 of molar concentration; output just the value

A selection of reference data follows.
CCCC(C)CN1CCN(Cc2ccc(OC(C)C3CCCCC3)cc2)C(=O)C1 (stereo not drawn); 6.15
CC(C)N1Cc2ccc(-c3ccc(CN4C[C@@H](C)OC4=O)cc3)cc2C1; 5.79
CCOC(=O)c1ccccc1-c1ccc(CN2C[C@@H](C)OC2=O)cc1; 5.74

Which pEC50 value belongs to `C[C@@H]1CN(Cc2ccc(-c3cccc(C#N)c3)cc2)C(=O)O1` ? 6.30

Which pEC50 value belongs to CC(C1CCC1)N1CCN(Cc2ccc(-c3ccc(F)cc3F)cc2)C(=O)C1 (stereo not drawn) ? 6.49

Which pEC50 value belongs to `Cc1ccccc1-c1ccc(CN2C[C@@H](C)OC2=O)cc1` ? 7.28

Which pEC50 value belongs to `CC1(C)COC(=O)N(Cc2ccc(OCC3CCCCC3)cc2)C1` ? 6.16

Which pEC50 value belongs to CCN(C)CC1CN(Cc2ccc(-c3ccc(F)cc3F)cc2)C(=O)O1 (stereo not drawn) ? 6.24

###

Target: UniProt:Q14416
Experiment: mGluR2 potentiator screen (FLIPR, EC10-EC20 glutamate challenge);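 note: HEK cells stably expressing human mGluR2 with GL15 G protein, Fluo-4 calcium fluorescence read on FLIPR, compounds added before an EC10-EC20 glutamate challenge to detect potentiation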
Conditions: geometric mean; read-out: mGluR 2 EC50 (geometric mean)
recorded-endpoint: EC50

A selection of reference data follows.
CC[C@H](C)COc1ccc(CN2CC(C)OC2=O)cc1 (stereo partly drawn); 55.9 nM
C[C@@H]1CN(Cc2ccc(CCc3ccccc3)cc2)C(=O)O1; 111 nM
C[C@@H]1CN(Cc2ccc(-c3ccc(C(F)(F)F)cc3Cl)cc2)C(=O)O1; 20.1 nM
COc1cc(COc2ccc(CN3CC(C)OC3=O)cc2)ccc1C (stereo not drawn); 1110 nM
Cc1cc(-c2ccc(CN3C[C@@H](C)OC3=O)cn2)ccc1F; 475 nM

Which EC50 value belongs to `C[C@@H]1CN(Cc2ccc(-c3ccc(N4CCCC4)nc3)cc2)C(=O)O1` ? 151 nM

Which EC50 value belongs to `CC(C)Oc1ccc(-c2ccc(CN3C[C@@H](C)OC3=O)cn2)c(F)c1` ? 159 nM

Which EC50 value belongs to CC1CN(Cc2ccc(O[C@H]3C[C@H]4CC[C@@H]3C4)cc2)C(=O)O1 (stereo partly drawn) ? 22.6 nM

Which EC50 value belongs to `C[C@@H]1CN(Cc2ccc(CN3CCc4ccccc43)cc2)C(=O)O1` ? 389 nM

Which EC50 value belongs to Cc1onc(-c2ccccc2)c1COc1ccc(CN2CC(C)OC2=O)cc1 (stereo not drawn) ? 1670 nM

Which EC50 value belongs to COc1cccc(COc2ccc(CN3CC(C)OC3=O)cc2)c1 (stereo not drawn) ? 221 nM

Which EC50 value belongs to `C[C@H]1CN(Cc2ccc(O[C@H](C)c3ccccc3)cc2)C(=O)O1` ? 299 nM

Which EC50 value belongs to CC1CN(Cc2ccc(O[C@@H](C)c3ccccc3)cc2)C(=O)O1 (stereo partly drawn) ? 84.8 nM

Which EC50 value belongs to CC1CN(Cc2ccc(OCc3ccc(F)c(F)c3)cc2)C(=O)O1 (stereo not drawn) ? 310 nM

Which EC50 value belongs to CC1CN(Cc2ccc(OCC3CCCC3)cc2)C(=O)O1 (stereo not drawn) ? 25.5 nM

Which EC50 value belongs to CC(Oc1ccc(CN2CC(c3cccnc3)OC2=O)cc1)C1CCCCC1 (stereo not drawn) ? 41.6 nM

Which EC50 value belongs to `C[C@@H]1CN(Cc2ccc(-c3cc(C#N)ccc3Cl)cc2)C(=O)O1` ? 683 nM

Which EC50 value belongs to `O=C1OC[C@@H]2CCCC[C@@H]2N1Cc1ccc(OCc2ccccc2)cc1` ? 647 nM

Which EC50 value belongs to COc1ccccc1COc1ccc(CN2CC(C)OC2=O)cc1 (stereo not drawn) ? 89.4 nM

Which EC50 value belongs to CC(Oc1ccc(CN2C(=O)OC[C@@H]3CCCC[C@@H]32)cc1)c1ccccc1 (stereo partly drawn) ? 884 nM

Which EC50 value belongs to `Cc1cc(CN2C[C@@H](C)OC2=O)cc(C)c1OCc1ccccc1` ? 964 nM
